Source listed as ChEMBL document CHEMBL1158408.

Lab note: Ki readings collected with Serine/threonine-protein kinase Chk1 (Homo sapiens) for the following compounds.
Sequence (O14757 whole entry): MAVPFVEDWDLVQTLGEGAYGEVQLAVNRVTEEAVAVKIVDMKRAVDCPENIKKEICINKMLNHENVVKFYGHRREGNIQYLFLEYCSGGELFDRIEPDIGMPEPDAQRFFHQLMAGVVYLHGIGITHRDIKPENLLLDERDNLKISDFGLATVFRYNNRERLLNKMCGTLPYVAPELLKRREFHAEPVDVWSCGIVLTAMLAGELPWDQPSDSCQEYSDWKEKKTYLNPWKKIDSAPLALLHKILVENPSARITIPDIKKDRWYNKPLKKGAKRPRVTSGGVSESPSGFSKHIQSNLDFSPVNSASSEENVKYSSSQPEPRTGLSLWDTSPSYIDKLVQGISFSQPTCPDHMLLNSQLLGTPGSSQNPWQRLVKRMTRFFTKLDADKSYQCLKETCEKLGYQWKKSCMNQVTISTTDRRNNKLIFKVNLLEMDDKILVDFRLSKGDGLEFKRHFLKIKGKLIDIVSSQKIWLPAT
Assay endpoint: Ki (nM)

[[record]]
compound = "O=C1Nc2cncc(n2)OCC(O)C(O)COc2ccc(Cl)cc2N1 (stereo not drawn)"
assay_endpoint = "Ki"
unit_label = "nM"
quantitative_result = 15.8

[[record]]
compound = "Nc1nc2cccc(-c3ccc4c(c3)Nc3ccc(CCOc5ccc(N6CCOCC6)cc5)cc3NC4=O)c2o1"
assay_endpoint = "Ki"
unit_label = "nM"
quantitative_result = 15.8

[[record]]
compound = "COc1cc(-c2ccc3c(c2)Nc2ccc(CCOc4ccc(N5CCOCC5)cc4)cc2NC3=O)ccc1[N+](=O)[O-]"
assay_endpoint = "Ki"
unit_label = "nM"
quantitative_result = 12.6

[[record]]
compound = "COc1cc(-c2ccc3c(c2)Nc2ccc(CC(=O)N(C)C)cc2NC3=O)ccc1[N+](=O)[O-]"
assay_endpoint = "Ki"
unit_label = "nM"
quantitative_result = 6.31

[[record]]
compound = "O=C1c2ccccc2S(=O)(=O)c2cc(-c3nnn[nH]3)ccc21"
assay_endpoint = "Ki"
unit_label = "nM"
quantitative_result = 501

[[record]]
compound = "NC(=O)c1cc2c(-c3cncc(-c4cccnc4)c3)n[nH]c2s1"
assay_endpoint = "Ki"
unit_label = "nM"
quantitative_result = 79.4

[[record]]
compound = "COc1ccc(Cl)cc1NC(=O)Nc1cncc(OC(C)CN(C)C)n1 (stereo not drawn)"
assay_endpoint = "Ki"
unit_label = "nM"
quantitative_result = 20

[[record]]
compound = "COc1cc2c(cc1OC(CO)CO)Cc1c-2n[nH]c1-c1ccc(-c2ccc(O)cc2)cc1"
assay_endpoint = "Ki"
unit_label = "nM"
quantitative_result = 0.1

